Origin of measurements: ChEMBL document CHEMBL3611975

Test system: Influenza A virus
Assay: Antiviral activity against Influenza A virus (A/Puerto Rico/8/1934(H1N1)) infected in MDCK cells assessed as decrease in virus titer after 48 hrs by MTT assay
Assay type: functional, organism-based
The reader will find reported EC50 values listed item by item below.
Lab book: enter the figure in µM, no units written.

1. OC[C@H]1[C@@H]2C[C@H](n3cnc4c(N5CCOCC5)ncnc43)[C@H]1C[C@@H]2Cl; 19

q: I'd like to know its EC50. The compound in question is `CCOc1ncnc2c1ncn2[C@H]1C[C@H]2[C@H](CO)[C@@H]1C[C@@H]2Cl`
a: 225

q: I'd like to know its EC50. The compound in question is `O=c1ccn([C@H]2C[C@H]3[C@H](CO)[C@@H]2C[C@@H]3Cl)c(=O)[nH]1`
a: 64
